- ASSAY INFO: in vivo
- MEASUREMENT PARAMETERS: male, CF No 1 albino, mouse, ip
MEASURED PARAMETER: TD50 at 1 h (mg/kg)
Answers are plain numbers, in mg/kg.

input: Which TD50 at 1 h value is on record for OC[C@H]1O[C@@H](n2cnc3c(NC4CCCC4)nc(Cl)nc32)[C@H](O)[C@@H]1O [Compound 44b, 2-chloro-N^6-cyclopentyladenosine, reference compound] ?
output: 0.84

* * *

- TARGET: hA1AR (Homo sapiens, UniProt P30542)
- Sequence (P30542 whole entry): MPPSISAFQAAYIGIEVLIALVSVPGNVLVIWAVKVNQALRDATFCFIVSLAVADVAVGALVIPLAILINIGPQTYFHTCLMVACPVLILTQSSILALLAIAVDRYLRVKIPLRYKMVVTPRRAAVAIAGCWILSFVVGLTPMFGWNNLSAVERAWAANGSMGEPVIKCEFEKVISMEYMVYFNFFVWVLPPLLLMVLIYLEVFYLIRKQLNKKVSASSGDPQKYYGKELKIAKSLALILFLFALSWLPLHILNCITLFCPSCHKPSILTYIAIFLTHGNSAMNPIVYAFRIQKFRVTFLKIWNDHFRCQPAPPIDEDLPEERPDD
- ASSAY INFO: Radioligand binding at hA1AR
- MEASUREMENT PARAMETERS: A1, A2A and A3 ARs compared
MEASURED PARAMETER: AR subtype selectivity in binding (in words)

> print(dat)
                                   compound  observed.measurement
1  NNc1nc(NC(C2CC2)C2CC2)c2ncn([C@H]3[C@H](O)[C@H](O)[C@@H]4C[C@@H]43)c2n1 [Compound 40]          nonselective
2  O=C(O)c1cnn(-c2nc(NC(C3CC3)C3CC3)c3ncn([C@H]4[C@H](O)[C@H](O)[C@@H]5C[C@@H]54)c3n2)c1 [Compound 43]     weak nonselective
3  O[C@@H]1[C@H](O)[C@@H]2C[C@@H]2[C@H]1n1cnc2c(NCC(C3CC3)C3CC3)nc(Cl)nc21 [Compound 7]          nonselective
4  COC(=O)c1cnn(-c2nc(NC(C3CC3)C3CC3)c3ncn([C@H]4[C@H](O)[C@H](O)[C@@H]5C[C@@H]54)c3n2)c1 [Compound 42]     weak nonselective
